species: Rattus norvegicus; assay: Open TG-GATES - Regimen: Single; type: toxicity, organism-based, Sprague-Dawley; design: regimen Single, gender Male, age 6 weeks; conditions: in vivo, po, 0 mg/kg, 3 h, tissue Blood, route gavage, dose level Control
Short version: Mono at least 2% is T, less is F.

Consider the following illustrative entries.
[
  {
    "Molecule": "NC(=O)N/N=C/c1ccc([N+](=O)[O-])o1",
    "Discrete label": "T"
  },
  {
    "Molecule": "O=C(O)c1cc(/N=N/c2ccc(S(=O)(=O)Nc3ccccn3)cc2)ccc1O",
    "Discrete label": "F"
  },
  {
    "Molecule": "CCc1cc(C(N)=S)ccn1 [ETHIONAMIDE]",
    "Discrete label": "T"
  }
]

Please find the next molecule below.
**Query** I'd appreciate it if you could say whether `COc1ccc(Cc2nccc3cc(OC)c(OC)cc23)cc1OC` has Mono at least equal to 2%.
**Result** T

----------
Listing of recorded TG by entry.
species on record: Rattus norvegicus; test: Open TG-GATES - Regimen: Single; format: toxicity, organism-based, Sprague-Dawley; design: regimen Single, gender Male, age 6 weeks; conditions: in vivo, po, 0 mg/kg, 6 h, tissue Plasma, route gavage, dose level Control
Quick note: give the figure in mg/dL, leave out the unit.

Solved cases (4 shown):
[
  {
    "Compound": "O=C(O)c1cc(/N=N/c2ccc(S(=O)(=O)Nc3ccccn3)cc2)ccc1O",
    "Readout label": "TG",
    "Measurement": 58
  },
  {
    "Compound": "CCc1cc(C(N)=S)ccn1 [ETHIONAMIDE]",
    "Readout label": "TG",
    "Measurement": 86.6
  },
  {
    "Compound": "NC(=O)N1c2ccccc2C=Cc2ccccc21 [CARBAMAZEPINE]",
    "Readout label": "TG",
    "Measurement": 60.4
  },
  {
    "Compound": "CN(C)CCC=C1c2ccccc2CCc2ccccc21",
    "Readout label": "TG",
    "Measurement": 67
  }
]

**Query** Quickly give me recorded TG for `Cn1c(=O)c2[nH]cnc2n(C)c1=O.O`
**Result** 48.2

**Query** Quickly give me recorded TG for `NC(=O)N/N=C/c1ccc([N+](=O)[O-])o1`
**Result** 36.2

----------
species: Rattus norvegicus; experiment: Open TG-GATES - Regimen: Single; type: toxicity, organism-based, Sprague-Dawley; parameters: regimen Single, gender Male, age 6 weeks; conditions: in vivo, po, 1000 mg/kg, 6 h, tissue Plasma, route gavage, dose level High
Listing of recorded ALT by entry.
Quick note: give the figure in IU/L, leave out the unit.

Solved cases (3 shown):
[
  {
    "Molecule": "Clc1ccccc1CN1CCc2sccc2C1",
    "ALT, IU/L": 31
  },
  {
    "Molecule": "CCc1cc(C(N)=S)ccn1 [ETHIONAMIDE]",
    "ALT, IU/L": 33.8
  },
  {
    "Molecule": "C[C@H](CS)C(=O)N1CCC[C@H]1C(=O)O",
    "ALT, IU/L": 32.8
  }
]

Lab note: next molecule to report on.
**Query** Quickly give me recorded ALT for `O=C(O)c1cc(/N=N/c2ccc(S(=O)(=O)Nc3ccccn3)cc2)ccc1O`
**Result** 31.4

----------
Listing of recorded TERMINAL_BW by entry.
organism: Rattus norvegicus; experiment: Open TG-GATES - Regimen: Single; type: toxicity, organism-based, Sprague-Dawley; parameters: regimen Single, gender Male, age 6 weeks; details: in vivo, po, 0 mg/kg, 9 h, route gavage, dose level Control
Quick note: give the figure in g, leave out the unit.

[
  {
    "Compound": "CCc1cc(C(N)=S)ccn1 [ETHIONAMIDE]",
    "TERMINAL_BW [g]": 223.4
  },
  {
    "Compound": "CN(C)CCC=C1c2ccccc2CCc2ccccc21",
    "TERMINAL_BW [g]": 191.9
  },
  {
    "Compound": "C[C@H](CS)C(=O)N1CCC[C@H]1C(=O)O",
    "TERMINAL_BW [g]": 222.4
  }
]

**Query** Quickly give me recorded TERMINAL_BW for `O=C(O)c1cn(C2CC2)c2cc(N3CCNCC3)c(F)cc2c1=O`
**Result** 177.8

----------
Listing of recorded MCV by entry.
species: Rattus norvegicus; test: Open TG-GATES - Regimen: Daily Repeat; assay type: toxicity, organism-based, Sprague-Dawley; design: regimen Daily Repeat, gender Male, age 6 weeks; conditions: in vivo, po, 0 mg/kg, 72 h, tissue Blood, route gavage, dose level Control, time 3 day
Quick note: give the figure in fL, leave out the unit.

[
  {
    "Molecule": "CC(=O)Oc1ccccc1C(=O)O",
    "MCV, fL": 62.1
  },
  {
    "Molecule": "O=C(O)c1cn(C2CC2)c2cc(N3CCNCC3)c(F)cc2c1=O",
    "MCV, fL": 66.2
  },
  {
    "Molecule": "Cn1c(=O)c2[nH]cnc2n(C)c1=O.O",
    "MCV, fL": 63.2
  },
  {
    "Molecule": "NC(=O)N/N=C/c1ccc([N+](=O)[O-])o1",
    "MCV, fL": 64.4
  },
  {
    "Molecule": "CSc1ccc2c(c1)N(CCC1CCCCN1C)c1ccccc1S2 (stereo not given)",
    "MCV, fL": 64.4
  },
  {
    "Molecule": "C[C@H](CS)C(=O)N1CCC[C@H]1C(=O)O",
    "MCV, fL": 65.6
  }
]

**Query** Quickly give me recorded MCV for `O=C(O)c1cc(/N=N/c2ccc(S(=O)(=O)Nc3ccccn3)cc2)ccc1O`
**Result** 63.5

**Query** Quickly give me recorded MCV for `Clc1ccccc1CN1CCc2sccc2C1`
**Result** 61.3

**Query** Quickly give me recorded MCV for CCc1cc(C(N)=S)ccn1 [ETHIONAMIDE]
**Result** 64.7

----------
Listing of recorded Lym by entry.
species on record: Rattus norvegicus; experiment: Open TG-GATES - Regimen: Single; type: toxicity, organism-based, Sprague-Dawley; set-up: regimen Single, gender Male, age 6 weeks; details: in vivo, po, 0 mg/kg, 6 h, tissue Blood, route gavage, dose level Control
Quick note: give the figure in %, leave out the unit.

Solved cases (2 shown):
[
  {
    "Compound": "C[C@H](CS)C(=O)N1CCC[C@H]1C(=O)O",
    "Measurement": 76.8
  },
  {
    "Compound": "NC(=O)N1c2ccccc2C=Cc2ccccc21 [CARBAMAZEPINE]",
    "Measurement": 77
  }
]

**Query** Quickly give me recorded Lym for `COc1ccc(Cc2nccc3cc(OC)c(OC)cc23)cc1OC`
**Result** 82.8

**Query** Quickly give me recorded Lym for `NC(=O)N/N=C/c1ccc([N+](=O)[O-])o1`
**Result** 73.2

**Query** Quickly give me recorded Lym for CSc1ccc2c(c1)N(CCC1CCCCN1C)c1ccccc1S2 (stereo unspecified)
**Result** 74

**Query** Quickly give me recorded Lym for CCc1cc(C(N)=S)ccn1 [ETHIONAMIDE]
**Result** 80.6

----------
species on record: Rattus norvegicus; experiment: Open TG-GATES - Regimen: Single; assay type: toxicity, organism-based, Sprague-Dawley; design: regimen Single, gender Male, age 6 weeks; details: in vivo, po, 0 mg/kg, 6 h, tissue Plasma, route gavage, dose level Control
Readout label: CRE (mg/dL)
Quick note: give the figure in mg/dL, leave out the unit.

Solved cases (5 shown):
[
  {
    "Molecule": "CSc1ccc2c(c1)N(CCC1CCCCN1C)c1ccccc1S2 (configuration not stated)",
    "CRE (mg/dL)": 0.5
  },
  {
    "Molecule": "CC(=O)Oc1ccccc1C(=O)O",
    "CRE (mg/dL)": 0.4
  },
  {
    "Molecule": "Cn1c(=O)c2[nH]cnc2n(C)c1=O.O",
    "CRE (mg/dL)": 0.1
  },
  {
    "Molecule": "Clc1ccccc1CN1CCc2sccc2C1",
    "CRE (mg/dL)": 0.4
  },
  {
    "Molecule": "NC(=O)N1c2ccccc2C=Cc2ccccc21 [CARBAMAZEPINE]",
    "CRE (mg/dL)": 0.4
  }
]

**Query** Quickly give me recorded CRE for `O=C(O)c1cc(/N=N/c2ccc(S(=O)(=O)Nc3ccccn3)cc2)ccc1O`
**Result** 0.3

**Query** Quickly give me recorded CRE for `NC(=O)N/N=C/c1ccc([N+](=O)[O-])o1`
**Result** 0.2

**Query** Quickly give me recorded CRE for CCc1cc(C(N)=S)ccn1 [ETHIONAMIDE]
**Result** 0.5
